target: ATM (Homo sapiens (Human))
Sequence (Q13315 whole entry): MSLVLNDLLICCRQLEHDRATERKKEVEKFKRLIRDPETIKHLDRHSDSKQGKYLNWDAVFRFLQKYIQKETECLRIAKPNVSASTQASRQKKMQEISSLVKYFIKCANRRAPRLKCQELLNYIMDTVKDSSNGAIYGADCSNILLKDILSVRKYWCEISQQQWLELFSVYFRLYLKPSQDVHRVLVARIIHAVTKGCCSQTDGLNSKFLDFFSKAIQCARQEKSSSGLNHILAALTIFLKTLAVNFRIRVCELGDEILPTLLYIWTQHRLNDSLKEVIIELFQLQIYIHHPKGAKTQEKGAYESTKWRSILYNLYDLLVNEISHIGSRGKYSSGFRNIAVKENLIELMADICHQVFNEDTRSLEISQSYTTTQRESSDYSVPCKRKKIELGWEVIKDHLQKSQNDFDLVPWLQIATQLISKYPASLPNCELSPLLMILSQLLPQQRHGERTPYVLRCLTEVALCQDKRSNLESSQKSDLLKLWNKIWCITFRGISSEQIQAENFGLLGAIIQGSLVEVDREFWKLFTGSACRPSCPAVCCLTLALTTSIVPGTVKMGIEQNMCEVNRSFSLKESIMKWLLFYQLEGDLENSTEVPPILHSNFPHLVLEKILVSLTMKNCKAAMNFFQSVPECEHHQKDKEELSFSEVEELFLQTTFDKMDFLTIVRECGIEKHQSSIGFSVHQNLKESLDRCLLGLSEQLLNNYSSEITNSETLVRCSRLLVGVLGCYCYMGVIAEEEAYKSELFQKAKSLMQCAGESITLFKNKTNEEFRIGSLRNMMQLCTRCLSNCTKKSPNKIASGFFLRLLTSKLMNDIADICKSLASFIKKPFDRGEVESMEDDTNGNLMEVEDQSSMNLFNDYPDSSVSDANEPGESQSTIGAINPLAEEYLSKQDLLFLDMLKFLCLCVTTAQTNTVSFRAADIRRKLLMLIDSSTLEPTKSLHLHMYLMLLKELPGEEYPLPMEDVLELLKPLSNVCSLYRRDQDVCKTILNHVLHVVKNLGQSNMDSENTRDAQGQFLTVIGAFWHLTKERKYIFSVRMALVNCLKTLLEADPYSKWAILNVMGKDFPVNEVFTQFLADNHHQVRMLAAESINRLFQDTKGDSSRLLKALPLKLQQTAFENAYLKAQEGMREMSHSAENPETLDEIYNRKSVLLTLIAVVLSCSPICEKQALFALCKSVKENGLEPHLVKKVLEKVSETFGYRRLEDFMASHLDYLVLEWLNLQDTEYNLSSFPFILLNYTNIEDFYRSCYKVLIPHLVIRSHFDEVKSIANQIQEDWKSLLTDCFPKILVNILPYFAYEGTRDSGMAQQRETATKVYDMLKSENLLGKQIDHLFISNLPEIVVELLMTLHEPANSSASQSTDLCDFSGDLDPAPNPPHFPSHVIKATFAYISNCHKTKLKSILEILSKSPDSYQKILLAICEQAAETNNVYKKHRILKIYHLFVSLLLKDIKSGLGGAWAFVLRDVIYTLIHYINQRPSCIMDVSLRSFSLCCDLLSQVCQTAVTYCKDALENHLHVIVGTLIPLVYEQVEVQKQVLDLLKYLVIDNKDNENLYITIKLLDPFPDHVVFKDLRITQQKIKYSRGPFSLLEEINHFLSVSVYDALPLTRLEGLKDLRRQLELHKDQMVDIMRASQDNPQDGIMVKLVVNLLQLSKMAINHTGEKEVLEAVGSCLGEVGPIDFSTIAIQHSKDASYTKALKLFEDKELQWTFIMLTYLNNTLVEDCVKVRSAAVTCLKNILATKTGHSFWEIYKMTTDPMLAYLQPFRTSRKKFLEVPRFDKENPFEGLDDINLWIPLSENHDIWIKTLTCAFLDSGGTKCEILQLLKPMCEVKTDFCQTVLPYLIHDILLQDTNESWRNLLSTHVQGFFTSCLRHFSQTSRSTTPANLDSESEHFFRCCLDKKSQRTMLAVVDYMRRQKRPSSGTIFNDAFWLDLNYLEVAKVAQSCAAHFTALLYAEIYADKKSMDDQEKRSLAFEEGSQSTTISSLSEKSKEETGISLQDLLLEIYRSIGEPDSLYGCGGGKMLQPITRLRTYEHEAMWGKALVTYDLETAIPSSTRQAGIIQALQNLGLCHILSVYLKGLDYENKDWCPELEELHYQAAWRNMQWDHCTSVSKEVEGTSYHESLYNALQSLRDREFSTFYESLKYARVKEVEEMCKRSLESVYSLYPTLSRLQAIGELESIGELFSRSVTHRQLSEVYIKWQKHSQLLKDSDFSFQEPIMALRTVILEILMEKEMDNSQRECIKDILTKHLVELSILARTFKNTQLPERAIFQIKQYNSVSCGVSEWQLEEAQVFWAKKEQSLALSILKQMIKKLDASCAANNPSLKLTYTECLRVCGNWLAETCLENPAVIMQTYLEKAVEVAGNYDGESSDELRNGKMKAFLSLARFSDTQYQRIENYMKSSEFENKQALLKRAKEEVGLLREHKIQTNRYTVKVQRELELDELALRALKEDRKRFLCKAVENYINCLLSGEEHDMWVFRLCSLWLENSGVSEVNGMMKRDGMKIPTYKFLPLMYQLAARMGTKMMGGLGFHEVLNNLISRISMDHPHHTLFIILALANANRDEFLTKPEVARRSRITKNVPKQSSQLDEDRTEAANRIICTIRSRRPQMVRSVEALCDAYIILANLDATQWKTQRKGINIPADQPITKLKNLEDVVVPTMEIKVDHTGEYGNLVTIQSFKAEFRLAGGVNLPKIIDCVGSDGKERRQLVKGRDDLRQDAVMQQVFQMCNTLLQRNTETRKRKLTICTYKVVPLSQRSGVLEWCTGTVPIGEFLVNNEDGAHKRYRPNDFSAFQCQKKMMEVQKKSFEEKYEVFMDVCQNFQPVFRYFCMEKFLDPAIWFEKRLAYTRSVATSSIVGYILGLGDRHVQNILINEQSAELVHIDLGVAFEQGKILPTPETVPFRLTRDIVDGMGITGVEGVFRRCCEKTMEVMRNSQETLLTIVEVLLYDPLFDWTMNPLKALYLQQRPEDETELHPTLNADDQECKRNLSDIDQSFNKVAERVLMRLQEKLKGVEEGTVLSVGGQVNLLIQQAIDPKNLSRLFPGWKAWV
assay.remarks: ATM in Cell Western Assay (pKAP1 in etoposide-treated MCF-7 cells)
Format: cell-based
measurement.setup: MCF-7 cells, etoposide 100 μM, 1 hr, pKAP1 readout
Where a name gives a salt, the structure may show the parent alone.

compound: CN(C)CCCOc1ncc(-c2ccc3ncc4c(c3c2)C2(CC2)C(=O)N4C)cc1NS(=O)(=O)N1CCCC1 [Example 89, hydrochloride]
IC50: 0.5 to 1 nM
--
compound: CN1C(=O)C2(CCC2)c2c1cnc1ccc(-c3cnc(OCC(CO)N4CCCCC4)c(NS(C)(=O)=O)c3)cc21 (stereo not drawn)
IC50: > 100 nM
--
compound: CCS(=O)(=O)Nc1cc(-c2ccc3ncc4c(c3c2)C2(CCC2)C(=O)N4C)cnc1OCCCN(C)C
IC50: 1 to 100 nM
--
compound: CNCCCCOc1ncc(-c2ccc3ncc4c(c3c2)C2(CC2)C(=O)N4C)cc1NS(=O)(=O)c1ccccc1
IC50: 1 to 100 nM
--
compound: CC(C)N1C(=O)C2(CC2)c2c1cnc1ccc(-c3cnc(OCCCN(C)C)c(NS(=O)(=O)c4ccccc4)c3)cc21
IC50: > 100 nM
--
compound: COc1ncc(-c2ccc3ncc4c(c3c2)C2(CC2)C(=O)N4CC2COC2)cc1NS(=O)(=O)c1ccccc1
IC50: > 100 nM
--
compound: CN(C)CCCOc1ncc(-c2ccc3ncc4c(c3c2)C2(CCC2)C(=O)N4C)cc1NS(=O)(=O)c1cscn1 [Example 160, hydrochloride]
IC50: 1 to 100 nM
--
compound: CN1C(=O)C2(CCC2)c2c1cnc1ccc(-c3cnc(N4CCC(N(C)C)CC4)c(NS(=O)(=O)C4CC4)c3)cc21
IC50: < 0.5 nM
--
compound: CN(C)CCCNc1ccc(-c2ccc3ncc4c(c3c2)C2(CC2)C(=O)N4C)cn1
IC50: 1 to 100 nM
--
compound: CN(C)CCCOc1ccc(-c2ccc3ncc4c(c3c2)C2(CC2)C(=O)N4C)cc1NS(=O)(=O)c1ccccc1
IC50: 0.5 to 1 nM
--
compound: CN(C)CCCOc1ncc(-c2ccc3ncc4c(c3c2)C2(CC2)C(=O)N4CC2COC2)cc1NS(=O)(=O)c1ccccc1
IC50: 1 to 100 nM
--
compound: CN1C(=O)C2(CCC2)c2c1cnc1ccc(-c3cnc(OCCCN4CCCC4)c(NS(=O)(=O)N(C)C)c3)cc21
IC50: 0.5 to 1 nM
--
compound: CN1C(=O)C2(CC2)c2c1cnc1ccc(-c3ccc4nc(Cl)ccc4c3)cc21
IC50: > 100 nM
--
compound: Cc1ccc(S(=O)(=O)Nc2cc(-c3ccc4ncc5c(c4c3)C3(CC3)C(=O)N5C)cnc2N2CCC(N3CCCCC3)CC2)cn1
IC50: 1 to 100 nM
--
compound: CCN(C)C1CN(c2ncc(-c3ccc4ncc5c(c4c3)C3(CCC3)C(=O)N5C)cc2NS(C)(=O)=O)C1 [Example 326, hydrochloride]
IC50: 1 to 100 nM
--
compound: COc1ncc(-c2ccc3ncc4c(c3c2)C2(CC2)C(=O)N4C)cc1NS(=O)(=O)c1cccc(Cl)c1
IC50: 1 to 100 nM
--
compound: CN1C(=O)C2(CCC2)c2c1cnc1ccc(-c3cnc(N4CCC(N5CCCCC5)CC4)c(NS(=O)(=O)c4ccccc4F)c3)cc21
IC50: 1 to 100 nM
--
compound: CN1CC(COc2ncc(-c3ccc4ncc5c(c4c3)C3(CC3)C(=O)N5C)cc2NS(=O)(=O)c2ccccc2)C1
IC50: > 100 nM
--
compound: CN1C(=O)C2(CCC2)c2c1cnc1ccc(-c3cnc(N4CCC(N5CCCCC5)CC4)c(NS(=O)(=O)c4ccccc4)c3)cc21 [Example 155, hydrochloride]
IC50: 1 to 100 nM
--
compound: CN(C)CCCOc1ncc(-c2ccc3ncc4c(c3c2)C2(CC2)C(=O)N4C)cc1NS(=O)(=O)C1CCC1
IC50: 1 to 100 nM
--
compound: COCCS(=O)(=O)Nc1cc(-c2ccc3ncc4c(c3c2)C2(CC2)C(=O)N4C)cnc1OCCCN(C)C
IC50: < 0.5 nM
--
compound: CN(C)CCCOc1ncc(-c2ccc3ncc4c(c3c2)C2(CC2)C(=O)N4C)cc1NS(=O)(=O)c1ccc(C(F)(F)F)cc1
IC50: < 0.5 nM
--
compound: CN1C(=O)C2(CC2)c2c1cnc1ccc(-c3cnc(OCCC4CCCCN4C)c(NS(=O)(=O)C4CC4)c3)cc21 (stereo not drawn)
IC50: 1 to 100 nM
--
compound: CCS(=O)(=O)Nc1cc(-c2ccc3ncc4c(c3c2)C2(CC2)C(=O)N4C)cnc1OCCCN(C)C [Example 61, hydrochloride]
IC50: 1 to 100 nM
--
compound: CC(C)NCCOc1ncc(-c2ccc3ncc4c(c3c2)C2(CCC2)C(=O)N4C)cc1NS(C)(=O)=O
IC50: 1 to 100 nM
--
compound: CN1C(=O)C2(CCC2)c2c1cnc1ccc(-c3cnc(OCCCN4CCOCC4)c(NS(C)(=O)=O)c3)cc21
IC50: 1 to 100 nM
--
compound: CN(C)CCCOc1ncc(-c2ccc3ncc4c(c3c2)C2(CC2)C(=O)N4C)cc1NS(=O)(=O)c1ccc(Cl)cc1 [Example 128, hydrochloride]
IC50: 1 to 100 nM
